Reported fold change values for the following molecules.
ASSAY REMARKS: viability loss with induced miR-34 in A549 – imaging, A549 dox-inducible miR-34, nuclei and caspase counts, primary screen (AID 1347080); also: test concentration not given here
ASSAY CONTEXT: A549 miR-34 inducible, Hoechst nuclei count, 48 h; stronger effect = lower value; cell number ratio, induced over uninduced

{"MOLECULE": "CC(C)(Cc1ccc2ccccc2c1)NCC(O)COc1cccc(Cl)c1C#N (stereo not given)", "fold change": 0.92}
{"MOLECULE": "[N-]=[N+]=Nc1ccc(C(=O)CSC[C@H](NC(=O)CC[C@H](N)C(=O)O)C(=O)NCC(=O)O)cc1", "fold change": 0.923}
{"MOLECULE": "CC(CCC(=O)O)C1CC[C@H]2[C@@H]3CC[C@@H]4CC(O)CC[C@]4(C)[C@H]3CC[C@]12C (stereo not given in full)", "fold change": 0.884}
{"MOLECULE": "CCOC(=O)C(CCc1ccccc1)NC1CSC(c2cccs2)CN(CC(=O)O)C1=O (stereo not given)", "fold change": 1.05}
{"MOLECULE": "Cc1onc(-c2ccccc2Cl)c1C(=O)NC1C(=O)N2C(C(=O)O)C(C)(C)S[C@@H]12 (stereo not given in full)", "fold change": 0.964}
{"MOLECULE": "COc1c(C)c2c(c(O)c1CC=C(C)CCC(=O)O)C(=O)OC2", "fold change": 1.08}
{"MOLECULE": "C=CCn1cc(-c2nc3c([nH]2)c(-c2cccnc2)nn3C)c(C)n1", "fold change": 0.874}
{"MOLECULE": "O=C(CCc1ccc(O)cc1)c1c(O)cc(O)cc1OC1OC(CO)C(O)C(O)C1O (stereo not given)", "fold change": 0.988}
{"MOLECULE": "O=C(NCCc1nc2ccc(F)cc2[nH]1)c1cnccn1", "fold change": 0.896}
{"MOLECULE": "CC(NC(=O)C(C#N)=Cc1cccc(Br)n1)c1ccccc1 (stereo not given)", "fold change": 1.21}

----------
ASSAY REMARKS: MELAS cybrid and Rieske KO viability enhancers – cell-based, MELAS cybrids, Rieske KO mouse fibroblasts, CellTiter-Glo, primary screen (AID 1508586);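 also: test concentration not given here; z relative to plate mean and SD of compound and empty wells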
ASSAY CONTEXT: Rieske KO mouse fibroblast survival, low glucose, CellTiter-Glo 72 h
ATTRIBUTE MEASURED: z-score

{"COMPOUND": "CCc1cc(CN2CCN(C)C(CCO)C2)on1 (centres undefined)", "ATTRIBUTE MEASURED": "z-score", "MEASURED RESULT": -0.294}
{"COMPOUND": "C[C@]12CCC(O)CC1=CCC1C2CC[C@]2(C)C(n3cnc4ccccc43)=CCC12 (some centres undefined)", "ATTRIBUTE MEASURED": "z-score", "MEASURED RESULT": -0.165}
{"COMPOUND": "COC1CN(Cc2cn(C)c3ccccc23)CC(=O)N(Cc2ccccc2)C1 (centres undefined)", "ATTRIBUTE MEASURED": "z-score", "MEASURED RESULT": -0.0158}
{"COMPOUND": "CC(C)CC(NC(=O)C(CCc1ccccc1)NC(=O)CN1CCOCC1)C(=O)NC(Cc1ccccc1)C(=O)NC(CC(C)C)C(=O)[C@@]1(C)CO1 (some centres undefined)", "ATTRIBUTE MEASURED": "z-score", "MEASURED RESULT": -3.69}
{"COMPOUND": "O=C(c1ccc(C=Cc2n[nH]c3ccccc23)cc1)N1CCNCC1", "ATTRIBUTE MEASURED": "z-score", "MEASURED RESULT": -1.76}
{"COMPOUND": "NCc1ccccc1CC(=O)N[C@@H]1C(=O)N2C(C(=O)O)=C(CSc3nnnn3CC(=O)O)CS[C@H]12", "ATTRIBUTE MEASURED": "z-score", "MEASURED RESULT": -0.0556}
{"COMPOUND": "COC(=O)c1c(NC(=O)Cc2ccccc2)c2cc(NCc3nccs3)cnc2n1CC(C)C", "ATTRIBUTE MEASURED": "z-score", "MEASURED RESULT": 1.74}
{"COMPOUND": "CS(=O)(=O)c1ccc([C@@H](O)[C@@H](COC(=O)CN)NC(=O)C(Cl)Cl)cc1", "ATTRIBUTE MEASURED": "z-score", "MEASURED RESULT": 1.38}
{"COMPOUND": "CCOC1O[C@H]([C@@H](COCc2ccccc2)OCc2ccccc2)[C@H](OCc2ccccc2)[C@H]1O (some centres undefined)", "ATTRIBUTE MEASURED": "z-score", "MEASURED RESULT": 0.506}
